The following compounds are listed with their measured GI50 values.
# Tested on: HCC-2998 colon
# EXPERIMENT DESCRIPTION: NCI tumour cell line growth inhibition, 48 h

{"COMPOUND": "CSc1nc2c(c(=O)[nH]1)N=C1c3ccccc3C(=O)C1C(c1ccc(F)cc1)N2 (stereo not given)", "TESTED ON": "HCC-2998 colon", "GI50": "12.2 µM"}
{"COMPOUND": "COc1ccc(-c2cc(-c3ccc(OC)c(OC)c3)nc(SCCCC(=O)NO)n2)cc1", "TESTED ON": "HCC-2998 colon", "GI50": "2.14 µM"}
{"COMPOUND": "C#Cc1cccc(Nc2ncnc3cc(OCCOC)c(OCCOC)cc23)c1", "TESTED ON": "HCC-2998 colon", "GI50": "> 88.8 µM"}
{"COMPOUND": "COP(=O)(OC)C(NC(c1ccccc1)c1ccccc1)c1ccc2c(c1)OCO2 (stereo not given)", "TESTED ON": "HCC-2998 colon", "GI50": "33.5 µM"}

Moving on to another compound below.
# input Field: GI50 (HCC-2998 colon). Entry: CN(C)CCCn1c2c(c3cnccc3c1=O)C(=O)c1ccccc1-2
# output 0.777 µM

----------
# Tested on: K-562 leukemia
# EXPERIMENT DESCRIPTION: NCI tumour cell line growth inhibition, 48 h
REPORTED PROPERTY: TGI

{"COMPOUND": "Cc1c(C#N)cccc1-c1cc(-c2cn(Cc3cccc(C(C)(C)O)n3)nn2)nc(N)n1", "TESTED ON": "K-562 leukemia", "REPORTED PROPERTY": "TGI", "OBSERVED": "> 100 µM"}

Moving on to another compound below.
# input Quick one: TGI for C[C@@H]1C=C(CCCCCCCCCCC[C@H](O)[C@@H]2CCC(=O)O2)C(=O)O1 ?
# output 56.7 µM

----------
# Test system: T-47D breast
# EXPERIMENT DESCRIPTION: NCI tumour cell line growth inhibition, 48 h
The following compounds are listed with their measured TGI values.

{"COMPOUND": "Cc1ccc(C(=O)Nc2ccc(CN3CCN(C)CC3)c(C(F)(F)F)c2)cc1C#Cc1cnc(N)cc1C#N", "TGI": "8.71 µM"}
{"COMPOUND": "C/C(=N\\NC(=O)c1ccncc1)c1cccc(C(F)(F)F)c1", "TGI": "> 10 µM"}
{"COMPOUND": "Cc1cn(C2CC(F)C(CO)O2)c(=O)[nH]c1=O (stereo unspecified)", "TGI": "> 100 µM"}

# input Quick one: TGI for O=Cc1c(-c2cc(O)ccc2O)nc2sccn12 ?
# output > 100 µM

# input Quick one: TGI for COc1ccc(C2C3=CONC3CC3CCCCC32)cc1 (stereo unspecified) ?
# output > 100 µM

# input Quick one: TGI for CC1=C([Se]CC(OC(=O)CC[Se]c2ccccc2)C(=O)NCCCCCC(=O)OCc2ccccc2)C(=O)c2ccccc2C1=O (stereo unspecified) ?
# output 8.21 µM

----------
# Test system: PC-3 prostate
# EXPERIMENT DESCRIPTION: NCI tumour cell line growth inhibition, 48 h
REPORTED PROPERTY: GI50

{"STRUCTURE STRING": "C=C1C(=O)O[C@H]2[C@H]1CC/C(COC(=O)NCc1cc3ccccc3[nH]1)=C\\CC[C@@]1(C)O[C@@H]21", "GI50": "1.63 µM"}
{"STRUCTURE STRING": "C=C1C(=O)O[C@H]2[C@H]1CC/C(COC(=O)/C=C/C(=O)OC/C1=C/CC[C@@]3(C)O[C@H]3[C@H]3OC(=O)C(=C)[C@@H]3CC1)=C\\CC[C@@]1(C)O[C@@H]21", "GI50": "3.02 µM"}
{"STRUCTURE STRING": "OCc1cn(Cc2cccc(Cl)c2)c2ccccc12", "GI50": "15.5 µM"}
{"STRUCTURE STRING": "NC(=O)c1cnc(N[C@@H]2CCCC[C@@H]2N)nc1Nc1cccc(-n2nccn2)c1", "GI50": "5.16 µM"}

# input Quick one: GI50 for CC(=O)OC[C@H]1O[C@@H](n2ccc(=O)[nH]c2=O)[C@H](OC(C)=O)[C@@H]1OC(C)=O ?
# output > 100 µM

meta.source: PubChem BioAssay (NCI)
